Listed here are molecules together with their documented IC50.
Biological target: TGF-beta receptor type-1 (Homo sapiens)
Sequence (P36897 whole entry): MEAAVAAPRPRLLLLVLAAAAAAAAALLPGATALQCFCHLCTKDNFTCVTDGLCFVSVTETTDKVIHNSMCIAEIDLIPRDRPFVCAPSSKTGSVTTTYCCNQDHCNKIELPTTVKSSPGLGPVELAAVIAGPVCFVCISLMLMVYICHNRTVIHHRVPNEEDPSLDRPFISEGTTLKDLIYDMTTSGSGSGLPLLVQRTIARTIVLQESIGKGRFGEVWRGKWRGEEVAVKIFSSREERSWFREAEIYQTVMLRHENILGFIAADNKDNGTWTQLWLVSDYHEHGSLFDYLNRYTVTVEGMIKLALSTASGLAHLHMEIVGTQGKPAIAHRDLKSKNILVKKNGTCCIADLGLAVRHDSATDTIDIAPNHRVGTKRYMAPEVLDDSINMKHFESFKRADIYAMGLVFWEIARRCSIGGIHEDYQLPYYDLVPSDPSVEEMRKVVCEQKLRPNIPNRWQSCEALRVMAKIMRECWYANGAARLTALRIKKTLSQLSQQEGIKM
Type: single protein
Description: Inhibition of human ALK5 using casein as substrate in presence of 10 uM [gamma33P] ATP by radioactive assay

# structure_as_smiles, target, IC50
records = [
    ("COc1cc(-c2cncc(-c3ccc(N4CCN(C(C)C)CC4)cc3)c2C)cc(OC)c1C(N)=O", "TGF-beta receptor type-1 (Homo sapiens)", "0.066 µM"),
    ("COc1c(-c2cncc(-c3ccc(N4CCNCC4)cc3)c2C)csc1C(N)=O", "TGF-beta receptor type-1 (Homo sapiens)", "> 5 µM"),
    ("Cc1c(-c2ccc(N3CCNCC3)cc2)cncc1-c1ccc2c(c1)CNC2=O", "TGF-beta receptor type-1 (Homo sapiens)", "> 5 µM"),
    ("COc1cc(-c2cncc(-c3ccc(N4C[C@@H](C)N(C)[C@@H](C)C4)cc3)c2C)cc(OC)c1C(N)=O", "TGF-beta receptor type-1 (Homo sapiens)", "0.052 µM"),
    ("Cc1c(-c2ccc(N3CCNCC3)cc2)cncc1-c1ccc(C(N)=O)c(F)c1", "TGF-beta receptor type-1 (Homo sapiens)", "> 5 µM"),
    ("COc1cc(-c2cncc(-c3ccc(N4CCN(C)CC4)cc3)c2C)cc(F)c1C(N)=O", "TGF-beta receptor type-1 (Homo sapiens)", "1.05 µM"),
    ("COCc1cc(-c2cncc(-c3ccc(N4CCNCC4)cc3)c2C)ccc1C(N)=O", "TGF-beta receptor type-1 (Homo sapiens)", "> 5 µM"),
    ("Cc1c(-c2ccc(C(N)=O)cc2)cncc1-c1ccc(N2CCNCC2)cc1", "TGF-beta receptor type-1 (Homo sapiens)", "> 5 µM"),
    ("COc1cc(-c2cncc(-c3ccc(N4CCNCC4)cc3)c2C)sc1C(N)=O", "TGF-beta receptor type-1 (Homo sapiens)", "> 5 µM"),
    ("COc1ccc(-c2cncc(-c3ccc(N4CCNCC4)cc3)c2C)cc1C(N)=O", "TGF-beta receptor type-1 (Homo sapiens)", "> 5 µM"),
]

====

Observed IC50 values for Activin receptor type-1 (Homo sapiens, UniProt Q04771) are listed in what follows.

# structure_as_smiles, relation_qualifier, IC50 [µM]
records = [
    ("COc1ccc(-c2cncc(-c3ccc(N4CCNCC4)cc3)c2C)cc1C(N)=O", ">", 1),
    ("COc1cc(-c2cncc(-c3ccc(N4C[C@@H](C)N(C)[C@@H](C)C4)cc3)c2C)cc(OC)c1C(N)=O", "=", 0.003),
    ("COc1cc(-c2cncc(-c3ccc(N4CCNCC4)cc3)c2C)sc1C(N)=O", "=", 0.751),
    ("COc1cc(-c2cncc(-c3ccc(N4CCN(C)CC4)cc3)c2C)cc(OC)c1C(N)=O", "<", 0.003),
    ("COc1c(C(N)=O)csc1-c1cncc(-c2ccc(N3CCNCC3)cc2)c1C", ">", 1),
    ("COc1cc(-c2cncc(-c3ccc(N4CCN(C(C)C)CC4)cc3)c2C)cc(OC)c1C(N)=O", "=", 0.005),
    ("COc1c(-c2cncc(-c3ccc(N4CCNCC4)cc3)c2C)csc1C(N)=O", "=", 0.712),
    ("COc1cc(-c2cncc(-c3ccc(N4CCNCC4)cc3)c2C)ccc1C(=O)N(C)C", ">", 1),
    ("COc1cc(C(N)=O)cc(-c2cncc(-c3ccc(N4CCNCC4)cc3)c2C)c1", "=", 0.102),
]
